- tested.on: HDAC6 human recombinant (Homo sapiens (Human), UniProt Q9UBN7)
- Sequence (Q9UBN7 whole entry): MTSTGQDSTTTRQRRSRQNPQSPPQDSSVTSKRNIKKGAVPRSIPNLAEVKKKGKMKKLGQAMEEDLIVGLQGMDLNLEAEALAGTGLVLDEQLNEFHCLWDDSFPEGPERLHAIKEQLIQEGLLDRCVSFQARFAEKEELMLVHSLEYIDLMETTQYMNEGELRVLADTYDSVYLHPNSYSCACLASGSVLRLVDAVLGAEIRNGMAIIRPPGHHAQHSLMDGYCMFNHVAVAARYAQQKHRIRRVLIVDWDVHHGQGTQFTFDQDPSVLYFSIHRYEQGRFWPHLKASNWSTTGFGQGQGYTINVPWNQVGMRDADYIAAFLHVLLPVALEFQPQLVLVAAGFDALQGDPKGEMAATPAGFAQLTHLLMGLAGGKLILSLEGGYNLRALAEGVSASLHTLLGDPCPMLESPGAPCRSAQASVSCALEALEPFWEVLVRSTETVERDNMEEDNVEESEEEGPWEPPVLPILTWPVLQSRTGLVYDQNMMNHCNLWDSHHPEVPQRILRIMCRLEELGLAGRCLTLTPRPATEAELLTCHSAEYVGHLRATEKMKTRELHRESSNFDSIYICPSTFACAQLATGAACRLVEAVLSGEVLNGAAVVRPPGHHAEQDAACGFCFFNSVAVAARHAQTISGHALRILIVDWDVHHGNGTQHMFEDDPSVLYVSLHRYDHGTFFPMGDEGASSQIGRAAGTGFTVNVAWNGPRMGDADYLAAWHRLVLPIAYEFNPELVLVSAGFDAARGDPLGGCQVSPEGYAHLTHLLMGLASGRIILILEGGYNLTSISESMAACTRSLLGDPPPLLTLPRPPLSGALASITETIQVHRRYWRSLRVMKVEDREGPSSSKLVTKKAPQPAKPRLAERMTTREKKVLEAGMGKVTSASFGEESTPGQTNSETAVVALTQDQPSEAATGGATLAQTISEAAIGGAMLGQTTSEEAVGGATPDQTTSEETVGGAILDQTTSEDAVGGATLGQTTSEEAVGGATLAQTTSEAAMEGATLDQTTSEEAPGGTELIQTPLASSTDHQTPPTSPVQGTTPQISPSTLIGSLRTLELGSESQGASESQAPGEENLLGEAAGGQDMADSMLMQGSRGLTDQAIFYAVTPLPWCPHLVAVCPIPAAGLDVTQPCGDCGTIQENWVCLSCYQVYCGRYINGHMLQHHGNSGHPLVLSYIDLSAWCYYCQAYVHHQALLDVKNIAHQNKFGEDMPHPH
- assay.text: HDAC6 enzyme activity inhibition (fluorimetric, in vitro)
- assay.setup: samples at 0.1, 1, 10, 100 and 1000 nM; 37° C. 60 minutes
readout.kind: IC50

Give HDAC6 human recombinant (Homo sapiens (Human), UniProt Q9UBN7) IC50 for the following molecule: CC1(C)C(=O)N(c2ccccc2)C(=O)N1Cc1ccc(-c2nnc(C(F)(F)F)o2)cc1F [Compound 2]
958 nM

----------
- tested.on: HDAC6 human recombinant (Homo sapiens (Human), UniProt Q9UBN7)
- assay.text: HDAC6 enzyme activity inhibition (fluorimetric, in vitro)
- assay.setup: samples at 0.1, 1, 10, 100 and 1000 nM; 37° C. 60 minutes
readout.kind: pIC50
// pIC50: -log10(molar conc.)

Study these solved cases before continuing.
>>> value_observed("O=C1CN(c2ccccc2)C(=O)N1Cc1ccc(-c2nnc(C(F)F)o2)cc1F [Compound 3]")
6.66
>>> value_observed("CC1(C)C(=O)N(Cc2ccc(-c3nnc(C(F)F)o3)cn2)C(=O)N1c1cccc(F)c1F [Compound 15]")
7.37
>>> value_observed("CN1CC2(C1)C(=O)N(Cc1ccc(-c3nnc(C(F)F)o3)cn1)C(=O)N2c1ccccc1 [Compound 21]")
6.62

Now for a further compound.
Specify the recorded pIC50 for CC(C)(C)OC(=O)N1CCc2c1cccc2N1C(=O)N(Cc2ccc(-c3nnc(C(F)F)o3)cn2)C(=O)C1(C)C [Compound 31] , system: HDAC6 human recombinant (Homo sapiens (Human), UniProt Q9UBN7).
6.50

----------
- tested.on: HDAC6 human recombinant (Homo sapiens (Human), UniProt Q9UBN7)
- assay.text: HDAC6 enzyme activity inhibition (fluorimetric, in vitro)
- assay.setup: samples at 0.1, 1, 10, 100 and 1000 nM; 37° C. 60 minutes
readout.kind: pIC50
As a rule, pIC50 stands for the negative log10 of the concentration, concentration in M.

>>> value_observed("CC1(C)C(=O)N(Cc2ccc(-c3nnc(C(F)F)o3)cn2)C(=O)N1c1ccc(-c2cccc(F)c2)cc1")
6.77
>>> value_observed("CN1CC=C(c2cccc(N3C(=O)N(Cc4ccc(-c5nnc(C(F)F)o5)cn4)C(=O)C3(C)C)c2)CC1")
7.07
>>> value_observed("O=C1CN(c2ccccc2)C(=O)N1Cc1ncc(-c2nnc(C(F)F)o2)cn1")
6.83

# next compound below
Output measured pIC50 for this item: `O=C1N(Cc2ccc(-c3nnc(C(F)F)o3)cn2)C(=O)C2(CCC2)N1c1ccccc1`
7.25

----------
- tested.on: HDAC6 human recombinant (Homo sapiens (Human))
- assay.text: HDAC6 enzyme activity inhibition (fluorimetric, in vitro)
- assay.setup: samples at 0.1, 1, 10, 100 and 1000 nM; 37° C. 60 minutes
readout.kind: IC50 (nM)
Numeric answer only, unit nM assumed.

Examples from the recorded data:
>>> value_observed("CC(=O)Nc1cccc(N2C(=O)N(Cc3ccc(-c4nnc(C(F)F)o4)cn3)C(=O)C2(C)C)c1 [Compound 36]")
35
>>> value_observed("CC1(C)C(=O)N(Cc2ccc(-c3nnc(C(F)F)o3)cn2)C(=O)N1c1cc(F)cc(F)c1 [Compound 17]")
69
>>> value_observed("CC1(C)C(=O)N(Cc2ccc(-c3nnc(C(F)F)o3)cn2)C(=O)N1c1ccc(-c2ccccc2F)cc1 [Compound 29]")
165
>>> value_observed("CC(=O)N1CC2(C1)C(=O)N(Cc1ccc(-c3nnc(C(F)F)o3)cn1)C(=O)N2c1ccccc1 [Compound 23]")
369

Name the recorded IC50 of the item CC(C)N1CCC2(CC1)C(=O)N(Cc1ccc(-c3nnc(C(F)F)o3)cn1)C(=O)N2c1cccc(F)c1 [Compound 8] in your answer.
99

Give the measured IC50 for CC1(C)C(=O)N(Cc2ccc(-c3nnc(C(F)F)o3)cn2)C(=O)N1c1ccc(-c2ccncc2)cc1 [Compound 26]
48

Given CC1(C)C(=O)N(Cc2ccc(-c3nnc(C(F)F)o3)cn2)C(=O)N1c1cccc(F)c1 [Compound 10] , respond with its IC50.
53

----------
- tested.on: HDAC6 human recombinant (Homo sapiens (Human), UniProt Q9UBN7)
- assay.text: HDAC6 enzyme activity inhibition (fluorimetric, in vitro)
- assay.setup: samples at 0.1, 1, 10, 100 and 1000 nM; 37° C. 60 minutes
Reported pIC50 values for a set of molecules
Notebook: values listed as pIC50 are -log10 of the concentration (mol/L).

Below: 3 molecules and their reported pIC50.
>>> value_observed("CN1CCC(c2cccc(N3C(=O)N(Cc4ccc(-c5nnc(C(F)F)o5)cn4)C(=O)C3(C)C)c2)CC1")
7.05
>>> value_observed("O=C1N(Cc2ccc(-c3nnc(C(F)F)o3)cn2)C(=O)C2(CCN(C3COC3)CC2)N1c1cccc(F)c1")
7.00
>>> value_observed("CC1(C)C(=O)N(Cc2ccc(-c3nnc(C(F)F)o3)cn2)C(=O)N1c1ccccc1")
7.10

# return recorded pIC50 for input `CN1CCC2(CC1)C(=O)N(Cc1ccc(-c3nnc(C(F)F)o3)cn1)C(=O)N2c1cccc(F)c1`
6.98

----------
- tested.on: HDAC6 human recombinant (Homo sapiens (Human))
- assay.text: HDAC6 enzyme activity inhibition (fluorimetric, in vitro)
- assay.setup: samples at 0.1, 1, 10, 100 and 1000 nM; 37° C. 60 minutes
IC50: recorded values
Hi! Could you send only the number? It should be in nM, unit omitted.

>>> value_observed("CC(C)(C)OC(=O)n1ccc2c(N3C(=O)N(Cc4ccc(-c5nnc(C(F)F)o5)cn4)C(=O)C3(C)C)cccc21")
578
>>> value_observed("CC1(C)C(=O)N(Cc2ccc(-c3nnc(C(F)F)o3)cn2)C(=O)N1c1cccc(N)c1")
52

In the following, a different molecule is considered.
State measured IC50 of the molecule `O=C1CN(c2ccccc2)C(=O)N1Cc1ccc(-c2nnc(C(F)F)o2)cn1` with HDAC6 human recombinant (Homo sapiens (Human)).
99
